Test system: HT-29
Experiment: Cytotoxicity against human HT-29 cells after 96 hrs by microplate reader analysis
Format: functional, cell-based
Conditions: HT-29, 96 h
log10 of IC50 listing for selected compounds.
Log10 applied to IC50; unit prior to transform: nM.

Worked examples follow.
COc1c(Cl)c2c(c(OC)c1OC)-c1ccc(OC)c(=O)cc1[C@@H](NC(=O)C(C)(C)O)CC2; 0.89
COc1c(Cl)c2c(c(OC)c1OC)-c1ccc(OC)c(=O)cc1[C@@H](NC(=O)CC(C)C)CC2; 1.21
COc1c(Cl)c2c(c(OC)c1OC)-c1ccc(OC)c(=O)cc1[C@@H](NC(=O)[C@@H](C)O)CC2; 0.86
COc1c(Cl)c2c(c(OC)c1OC)-c1ccc(OC)c(=O)cc1[C@@H](NC(=O)c1cc(F)c(F)c(F)c1)CC2; 0.80
COc1c(Cl)c2c(c(OC)c1OC)-c1ccc(OC)c(=O)cc1[C@@H](NC(=O)CCCO)CC2; 2.23
COc1c(Cl)c2c(c(OC)c1OC)-c1ccc(OC)c(=O)cc1[C@@H](NC(=O)c1ccc(N(C)C)cc1)CC2; 2.17

The measured log10 of IC50 associated with COc1c(Cl)c2c(c(OC)c1OC)-c1ccc(OC)c(=O)cc1[C@@H](NC(=O)C1CCCCC1)CC2 reads 0.85

The recorded log10 of IC50 for COc1c(Cl)c2c(c(OC)c1OC)-c1ccc(OC)c(=O)cc1[C@@H](NC(=O)c1cccc(N(C)C)c1)CC2 is 0.15

So for COc1ccc(C(=O)N[C@H]2CCc3c(Cl)c(OC)c(OC)c(OC)c3-c3ccc(OC)c(=O)cc32)c(OC)c1 , the logged log10 of IC50 turned out to be 1.73

Reported log10 of IC50 of COc1c(Cl)c2c(c(OC)c1OC)-c1ccc(OC)c(=O)cc1[C@@H](NC(=O)c1ccc(C#N)cc1)CC2 : 0.83

Measured log10 of IC50, COc1c(Cl)c2c(c(OC)c1OC)-c1ccc(OC)c(=O)cc1[C@@H](NC(=O)c1ccccc1[N+](=O)[O-])CC2 : 1.50

Kindly note the recorded log10 of IC50 for COc1c(Cl)c2c(c(OC)c1OC)-c1ccc(OC)c(=O)cc1[C@@H](NC(=O)c1ccccc1F)CC2 , which is 0.18

# compound COc1c(Cl)c2c(c(OC)c1OC)-c1ccc(OC)c(=O)cc1[C@@H](NC(=O)[C@H](C)O)CC2 ; its log10 of IC50 = 0.93

Recorded result, COc1c(Cl)c2c(c(OC)c1OC)-c1ccc(OC)c(=O)cc1[C@@H](N)CC2 , log10 of IC50: 2.35

Value of measured log10 of IC50 for the entry COc1cc(OC)cc(C(=O)N[C@H]2CCc3c(Cl)c(OC)c(OC)c(OC)c3-c3ccc(OC)c(=O)cc32)c1 : 0.90

Form field log10 of IC50, entry CCC(O)(CC)C(=O)N[C@H]1CCc2c(Cl)c(OC)c(OC)c(OC)c2-c2ccc(OC)c(=O)cc21 : 1.56

The compound listed as COc1c(Cl)c2c(c(OC)c1OC)-c1ccc(OC)c(=O)cc1[C@@H](NC(=O)CN(C)C)CC2 shows log10 of IC50 equal to 1.66

* * *

Tested on: HT-29
Assay: Cytotoxicity against human HT-29 cells after 96 hrs by microplate reader analysis
Assay type: functional, cell-based
Conditions: HT-29, 96 h
Below, each entry is listed with its recorded log10 IC50.
Each number you see is log10 of IC50, and the unit inside the log is nM.

The cases that follow already have their log10 IC50 on record.
COc1c(Cl)c2c(c(OC)c1OC)-c1ccc(OC)c(=O)cc1[C@@H](NC(=O)c1ccccc1N(C)C)CC2; 2.27
CCC(=O)N[C@H]1CCc2c(Cl)c(OC)c(OC)c(OC)c2-c2ccc(OC)c(=O)cc21; 0.52
COc1c(Cl)c2c(c(OC)c1OC)-c1ccc(OC)c(=O)cc1[C@@H](NC(=O)CS)CC2; 2.32
COc1ccccc1C(=O)N[C@H]1CCc2c(Cl)c(OC)c(OC)c(OC)c2-c2ccc(OC)c(=O)cc21; 1.10
COc1c(Cl)c2c(c(OC)c1OC)-c1ccc(OC)c(=O)cc1[C@@H](NC(=O)c1ccc([N+](=O)[O-])cc1)CC2; 0.84

// next item, log10 IC50 requested
// log10 IC50 lookup, compound = COc1c(Cl)c2c(c(OC)c1OC)-c1ccc(OC)c(=O)cc1[C@@H](NC(=O)c1cccc([N+](=O)[O-])c1)CC2 , result: -1.00
